# testName: Agonist activity beta2-adrenergic receptor in rat ventricular myocytes assessed as cell contraction following electrical stimulation by optical edge tracking method using photodiode array
pEC50: −log10 of the molar value.
pEC50 values for the compounds below.
measurementKind: pEC50

INSERT INTO assay_data (smi, measurementkind, observed) VALUES
  ('COc1ccc(C[C@@H](C)NC[C@H](O)c2cc(O)cc(O)c2)c2ccccc12', 'pEC50', 7.80),
  ('CC[C@H](Cc1ccc(O)cc1)NC[C@H](O)c1cc(O)cc(O)c1', 'pEC50', 5.07),
  ('C[C@H](Cc1ccc2ccccc2c1)NC[C@H](O)c1cc(O)cc(O)c1', 'pEC50', 6.88);
